Cited source for all entries: ChEMBL document CHEMBL6087458

measurementNotes: Cytotoxicity against mouse NIH/3T3 cells assessed as cell viability incubated for 72 hrs by MTT assay
Format: toxicity, cell-based, NIH3T3
reportedMetric: IC50 at 72 h (nM)
State the answer as a number, implicitly in nM.

// solved cases for IC50 at 72 h follow
INSERT INTO measurements (compound, valuemeasured) VALUES
  ('CCN1CCN(CC(=O)N(C)c2ccc(N/C(=C3\C(=O)Nc4cc(Cl)ccc43)c3ccccc3)cc2)CC1', 1950),
  ('COC(=O)c1ccc2c(c1)NC(=O)/C2=C(\Nc1ccc(N(C)C(=O)C(C)N2CCN(CCO)CC2)cc1)c1ccccc1 (racemic)', 1370),
  ('CN(C(=O)CN1CCC(N(C)C)CC1)c1ccc(N/C(=C2\C(=O)Nc3cc(Br)ccc32)c2ccccc2)cc1', 2310),
  ('CC(C(=O)N(C)c1ccc(N/C(=C2\C(=O)Nc3cc(Cl)ccc32)c2ccccc2)cc1)N1CCN(C)CC1 (racemic)', 1430),
  ('CCN1CCN(C(C)C(=O)N(C)c2ccc(N/C(=C3\C(=O)Nc4cc(C(=O)OC)ccc43)c3ccccc3)cc2)CC1 (racemic)', 2100);

Here is the next item to consider.
Q) Let me know recorded IC50 at 72 h for CC(C(=O)N(C)c1ccc(N/C(=C2\C(=O)Nc3cc(Cl)ccc32)c2ccccc2)cc1)N1CCC(N(C)C)CC1 (racemic) , thanks.
A) 980

====

Reported IC50 values for a set of molecules
System: BXPC-3
measurementNotes: cells
conditionDetails: Homo sapiens, BXPC-3, 72 h
Description: Antiproliferative activity against human BXPC-3 cells assessed as cell viability incubated for 72 hrs by MTT assay
State the answer as a number, implicitly in µM.

// solved cases for IC50 follow
INSERT INTO measurements (inputsmiles, valueunits, valuemeasured) VALUES
  ('COC(=O)c1ccc2c(c1)NC(=O)/C2=C(\Nc1ccc(N(C)C(=O)CN(C)CCN(C)C)cc1)c1ccccc1', 'µM', 6.01),
  ('COC(=O)c1ccc2c(c1)NC(=O)/C2=C(\Nc1ccc(N(C)C(=O)CN2CCN(C)CC2)cc1)c1ccccc1', 'µM', 5.34),
  ('CN1CCCN(CC(=O)N(C)c2ccc(N/C(=C3\C(=O)Nc4cc(Br)ccc43)c3ccccc3)cc2)CC1', 'µM', 2.15),
  ('CCN1CCN(CC(=O)N(C)c2ccc(N/C(=C3\C(=O)Nc4cc(C(=O)OC)ccc43)c3ccccc3)cc2)CC1', 'µM', 2.31);

Here is the next item to consider.
Q) Let me know recorded IC50 for `CCN1CCN(CC(=O)N(C)c2ccc(N/C(=C3\C(=O)Nc4cc(Br)ccc43)c3ccccc3)cc2)CC1` , thanks.
A) 3.57

====

measurementNotes: Antiproliferative activity against mouse NIH/3T3 cells cultured as 3D tumor spheroids assessed as cell viability incubated for 72 hrs by CCK-8 assay
Assay type: toxicity, cell-based, NIH3T3
reportedMetric: IC50 at 72 h (nM)
State the answer as a number, implicitly in nM.

Q) Let me know recorded IC50 at 72 h for CCN1CCN(C(C)C(=O)N(C)c2ccc(N/C(=C3\C(=O)Nc4cc(Cl)ccc43)c3ccccc3)cc2)CC1 (racemic) , thanks.
A) 2310

====

measurementNotes: Clearance in Sprague-Dawley rat at 5 mg/kg, iv
Type: ADME, organism-based
conditionDetails: in vivo
reportedMetric: clearance (mL/min/kg)
State the answer as a number, implicitly in mL/min/kg.

INSERT INTO results (compound, reportedmetric, valuemeasured) VALUES
  ('COC(=O)c1ccc2c(c1)NC(=O)/C2=C(\Nc1ccc(N(C)C(=O)CN2CCN(C)CC2)cc1)c1ccccc1', 'clearance', 111);

Here is the next item to consider.
Q) Let me know recorded clearance for CCN1CCN(C(C)C(=O)N(C)c2ccc(N/C(=C3\C(=O)Nc4cc(Cl)ccc43)c3ccccc3)cc2)CC1 (racemic) , thanks.
A) 46.5
